- Assayed target: GPR40 (Homo sapiens)
- Construct: expressed in transfected cells; host or cells: CHO (transient)
- Sequence (O14842 whole entry, species assumed): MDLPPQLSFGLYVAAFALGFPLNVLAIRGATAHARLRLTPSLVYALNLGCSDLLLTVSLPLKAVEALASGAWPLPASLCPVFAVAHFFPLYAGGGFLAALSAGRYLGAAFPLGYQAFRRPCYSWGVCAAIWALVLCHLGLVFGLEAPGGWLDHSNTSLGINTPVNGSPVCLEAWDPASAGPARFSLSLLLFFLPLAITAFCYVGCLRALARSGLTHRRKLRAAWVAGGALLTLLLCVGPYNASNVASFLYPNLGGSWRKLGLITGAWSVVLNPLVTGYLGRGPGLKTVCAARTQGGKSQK
- Protocol text: GPR40 Ca2+ flow assay in CHO cells with transient GPR40 gene
- Type: cell-based
- Measurement context: CHO cells, GPR40; read-out: FFA1 (Ca2+ pEC50) (converted)
# EC50 per entry
Endpoint: EC50

[[record]]
mol = "Cc1cc(C)c(NS(=O)(=O)c2ccc(-c3ccc4ccccc4c3)cc2)c(C)c1"
endpoint = "EC50"
result = "> 50.1 µM"

[[record]]
mol = "O=S(=O)(Nc1ccc(F)cc1)c1ccc(-c2ccc(OC(F)(F)F)cc2)cc1"
endpoint = "EC50"
result = "> 50.1 µM"

[[record]]
mol = "Cc1cc(C)c(NS(=O)(=O)c2ccc(-c3ccc(OC(F)(F)F)cc3)cc2)c(C)c1"
endpoint = "EC50"
result = "> 50.1 µM"

[[record]]
mol = "Cc1cc(C)c(NS(=O)(=O)c2ccc(-c3ccc(N)c(F)c3)cc2)c(C)c1"
endpoint = "EC50"
result = "> 50.1 µM"

[[record]]
mol = "O=S(=O)(Nc1ccc(Cl)cc1Cl)c1ccc(-c2ccc3ccccc3c2)cc1"
endpoint = "EC50"
result = "> 50.1 µM"


----------
- Assayed target: GPR120 (Homo sapiens, UniProt Q5NUL3)
- Sequence (Q5NUL3 1-361): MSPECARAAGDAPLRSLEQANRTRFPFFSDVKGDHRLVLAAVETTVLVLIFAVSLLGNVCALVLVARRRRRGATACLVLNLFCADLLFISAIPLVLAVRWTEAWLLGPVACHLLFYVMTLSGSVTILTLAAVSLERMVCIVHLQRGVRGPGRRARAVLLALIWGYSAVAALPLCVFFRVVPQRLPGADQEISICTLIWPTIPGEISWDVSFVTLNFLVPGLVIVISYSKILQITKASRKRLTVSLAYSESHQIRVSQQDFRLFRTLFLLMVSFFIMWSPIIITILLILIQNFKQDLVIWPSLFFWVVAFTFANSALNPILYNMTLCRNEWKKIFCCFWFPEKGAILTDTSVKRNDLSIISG
- Protocol text: BRET kinetic binding experiment of probe N1
- Parameters: expressed in transfected cells
- Measurement context: kinetic binding experiment
- Experimental: HEK293 cells stably transfecting the GPR120-Rluc gene were seeded in two entirely black 96-well plates (100 μl, 2 × 10^4 cells per well). After a 24-h incubation, the medium was removed from the non-specific plate, coelenterazine was added to (final concentration: 10 μM, 50 μl per well) the plates, and BRET value was measured after a 5-min incubation. Probe N1 (500 nM, 100 μl per well) was then added, and the BRET value was recorded in a 30-s interval for 6 minutes. […]
Endpoint: Kd

[[record]]
mol = "Cc1cc(C)c(NS(=O)(=O)c2ccc(NCCN3C(=O)c4cccc5c(N(C)C)ccc(c45)C3=O)cc2)c(C)c1"
assayed_target = "GPR120 (Homo sapiens, UniProt Q5NUL3)"
endpoint = "Kd"
result = "273 nM"


----------
- Assayed target: UniProt:Q5NUL3
- Sequence (Q5NUL3 1-361): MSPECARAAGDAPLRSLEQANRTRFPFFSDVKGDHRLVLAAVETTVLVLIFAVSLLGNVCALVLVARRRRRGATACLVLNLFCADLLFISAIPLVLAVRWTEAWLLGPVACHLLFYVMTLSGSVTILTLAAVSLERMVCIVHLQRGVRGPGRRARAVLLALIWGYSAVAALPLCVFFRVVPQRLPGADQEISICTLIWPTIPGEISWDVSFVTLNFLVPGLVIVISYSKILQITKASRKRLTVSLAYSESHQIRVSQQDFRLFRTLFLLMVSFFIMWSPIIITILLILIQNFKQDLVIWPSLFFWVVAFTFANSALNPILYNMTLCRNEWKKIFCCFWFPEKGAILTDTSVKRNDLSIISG
- Protocol text: BRET activity test (β-arrestin-2 recruitment, GPR120-YFP / β-arrestin-2-Rluc in HEK293 cells)
- Type: cell-based
- Parameters: host or cells: HEK293 (transfected with both plasmids)
- Measurement context: GSK137647A used as a standard
The entries below come with measured Emax (FFA4 β-arrestin2) values attached.
Endpoint: Emax (FFA4 β-arrestin2)

[[record]]
mol = "Cc1cc(C)c(NS(=O)(=O)c2ccc(-c3ccc(N)c(F)c3)cc2)c(C)c1"
measured_number = 0.881

[[record]]
mol = "O=S(=O)(Nc1ccc(Cl)cc1Cl)c1ccc(-c2ccc3ccccc3c2)cc1"
measured_number = 1.17

[[record]]
mol = "Cc1cc(C)c(NS(=O)(=O)c2ccc(-c3ccc(OC(F)(F)F)cc3)cc2)c(C)c1"
measured_number = 0.790

[[record]]
mol = "O=S(=O)(Nc1ccc(F)cc1)c1ccc(-c2ccc(OC(F)(F)F)cc2)cc1"
measured_number = 1.12

[[record]]
mol = "Cc1cc(C)c(NS(=O)(=O)c2ccc(-c3ccc4ccccc4c3)cc2)c(C)c1"
measured_number = 0.894

